Molecular target: human RIP1 kinase domain (2-375) (Homo sapiens (Human))
Sequence (Q13546 2-375): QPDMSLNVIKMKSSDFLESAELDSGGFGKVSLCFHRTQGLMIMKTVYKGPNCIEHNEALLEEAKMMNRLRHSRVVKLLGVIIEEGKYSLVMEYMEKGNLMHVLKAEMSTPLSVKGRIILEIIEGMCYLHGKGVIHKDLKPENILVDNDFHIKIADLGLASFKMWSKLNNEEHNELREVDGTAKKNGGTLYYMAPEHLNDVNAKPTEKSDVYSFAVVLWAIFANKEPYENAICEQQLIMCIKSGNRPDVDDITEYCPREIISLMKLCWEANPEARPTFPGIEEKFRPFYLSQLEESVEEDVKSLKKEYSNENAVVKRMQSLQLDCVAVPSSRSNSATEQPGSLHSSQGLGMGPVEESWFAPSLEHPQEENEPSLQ
Binning rule for recorded Ki: group A (below 0.02 µM), group B (0.02 µM to below 0.05 µM), group C (0.05 µM or more)

[O-][S@@+](c1nc2n(n1)[C@H](c1ccccc1)C[C@@H]2F)C1CC1 : group C
[O-][S@@+](c1nc2n(n1)[C@H](c1ccccc1)CC2)C(F)F : group B
O=S(=O)(c1nc2n(n1)[C@H](c1ccccc1Cl)C[C@@H]2F)C(F)(F)F (single isomer, unassigned) : group A
O=S(=O)(c1nc2n(n1)[C@H](c1cc(F)ccc1F)C[C@@H]2F)C(F)(F)F (single isomer, unassigned) : group A
O=S(=O)(c1nc2n(n1)[C@H](c1cc(Cl)ccc1F)C[C@@H]2F)C1CC1F (stereo in doubt) : group B
O=S(=O)(c1nc2n(n1)[C@H](c1ccc(F)cc1)C[C@@H]2F)C(F)F (single isomer, unassigned) : group C
O=S(=O)(c1nc2n(n1)[C@H](c1ccccc1)C[C@@H]2F)[C@H]1C[C@@H](CF)C1 (single isomer, unassigned) : group C
O=S(=O)(c1nc2n(n1)[C@H](c1cc(F)ccc1F)C[C@@H]2F)C1CC1F (stereo in doubt) : group B

# input // bin(item) where item = [O-][S@+](c1nc2n(n1)[C@H](c1ccccc1F)C[C@@H]2F)C(F)F (single isomer, unassigned)
# output group A

# input // bin(item) where item = O=S(=O)(c1nc2n(n1)[C@H](c1ccccc1)C[C@@H]2F)C(F)(F)F (single isomer, unassigned)
# output group A

# input // bin(item) where item = N#CC1(S(=O)(=O)c2nc3n(n2)[C@H](c2ccccc2)C[C@@H]3F)CC1 (single isomer, unassigned)
# output group B

# input // bin(item) where item = "[2H][C@H]1C[C@@H](c2ccccc2)n2nc(S(=O)(=O)C3CC3)nc21"
# output group C

# input // bin(item) where item = "O=S(=O)(c1nc2n(n1)[C@H](c1ccccc1)C[C@@H]2F)[C@@H]1CCC1(F)F"
# output group A

# input // bin(item) where item = O=S(=O)(c1nc2n(n1)[C@H](c1ccc(F)cc1)C[C@@H]2F)C1CC1F (stereo in doubt)
# output group B

----------
Ki tested on human RIP1 kinase domain (2-375) (Homo sapiens (Human)): recorded values
Reply with just the number (in nM).

Worked cases, Ki given:
[O-][S@+](CC1CC1)c1nc2n(n1)[C@H](c1ccccc1)C[C@@H]2F (single isomer, unassigned) : 130
O=S(=O)(c1nc2n(n1)C(c1ccccc1)CC2)C(F)(F)c1ccccc1 (racemic) : 152
[O-][S+](c1nc2n(n1)[C@H](c1cc(F)cc(F)c1)CC2)C(F)F (stereo in doubt) [Example 173] : 19
[O-][S@+](CF)c1nc2n(n1)[C@H](c1cccc(F)c1F)C[C@@H]2F (single isomer, unassigned) : 280
[O-][S@+](CF)c1nc2n(n1)[C@H](c1ccccc1F)C[C@@H]2F (single isomer, unassigned) : 140

The record that follows has no Ki shown yet.
# input Short answer please: Ki, human RIP1 kinase domain (2-375) (Homo sapiens (Human)), entry O=S(=O)(c1nc2n(n1)[C@H](c1cccc(F)c1)C[C@@H]2F)[C@H]1C[C@@H](O)C1 (single isomer, unassigned)
# output 460
